This collection of values is drawn from ChEMBL document CHEMBL3351463.

test-target: Histone deacetylase 2 (Homo sapiens, UniProt Q92769)
Sequence (Q92769 whole entry): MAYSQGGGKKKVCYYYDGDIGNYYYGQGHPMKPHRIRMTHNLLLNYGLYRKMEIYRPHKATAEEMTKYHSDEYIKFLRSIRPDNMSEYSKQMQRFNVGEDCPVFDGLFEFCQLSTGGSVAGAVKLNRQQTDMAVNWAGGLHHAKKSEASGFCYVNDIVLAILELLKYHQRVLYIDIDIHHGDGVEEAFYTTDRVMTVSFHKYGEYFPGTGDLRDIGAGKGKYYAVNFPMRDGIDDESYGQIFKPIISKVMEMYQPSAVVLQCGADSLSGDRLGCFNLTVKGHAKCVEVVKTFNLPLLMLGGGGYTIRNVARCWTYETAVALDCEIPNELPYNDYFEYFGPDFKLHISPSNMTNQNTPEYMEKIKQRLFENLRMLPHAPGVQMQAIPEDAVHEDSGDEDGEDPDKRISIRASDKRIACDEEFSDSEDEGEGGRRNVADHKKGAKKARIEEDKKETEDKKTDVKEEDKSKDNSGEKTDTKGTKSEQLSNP
measurement-notes: Inhibition of human recombinant HDAC2 using [Ac-Leu-Gly-Lys(Ac)-AMC substrate incubated for 15 to 30 mins
# Ki values compiled below
Write the number in nM without appending the unit.

Some molecules with recorded Ki:
CC(C)[C@H]1NC(=O)C[C@@H](C/C=C\CCC(=O)O)NC(=O)[C@@H](Cc2ccc(O)cc2)NC(=O)[C@@H](C)NC1=O
300
CC(C)[C@H]1NC(=O)C[C@@H](C/C=C\CCC(=O)O)NC(=O)[C@@H](Cc2c[nH]c3ccccc23)NC(=O)[C@@H](C)NC1=O
300
CC(C)[C@H]1NC(=O)C[C@@H](C/C=C\CCC(=O)O)NC(=O)[C@@H](Cc2ccccc2)NC(=O)[C@@H](C)NC1=O
900

Attention now turns to another entry.
What does the data say about its Ki? Entry: CC(C)[C@H]1NC(=O)C[C@@H](CCCCCC(=O)O)NC(=O)[C@@H](Cc2ccc(O)cc2)NC(=O)[C@@H](C)NC1=O 300
